Target: T1, H6NA3 (UniProt P06731 35-144; P06731 499-590, limits assumed)
T1 construct: domain: N domain;domain: A3 domain; recombinant truncated target
T1 sequence: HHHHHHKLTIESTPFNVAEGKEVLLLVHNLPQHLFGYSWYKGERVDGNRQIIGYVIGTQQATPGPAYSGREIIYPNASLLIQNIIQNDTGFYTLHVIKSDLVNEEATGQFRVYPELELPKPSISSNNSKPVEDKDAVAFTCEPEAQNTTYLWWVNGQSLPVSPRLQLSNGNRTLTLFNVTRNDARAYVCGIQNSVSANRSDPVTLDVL
Experiment: fluorescence anisotropy, direct binding
Ends that are not written are not given here. fluorescein = fluorescein label attached through NHS-fluorescein to the ε-amino side group of the C-terminal lysine
Quantity Kind: pKd
Answers are plain numbers, as −log10 of the molar value.

Take a look at these entries with their results.
1. DWVCEIVKNQWICNPLAPGGEGGGSK(fluorescein)-NH2 (not fully specified (bridges); cysteine pairing not given here; also: fluorescein on C-terminal Lys ε-amino in labelled aliquots, synthetic) [315A-18-E01 synthetic peptide]
6.06
2. DWVCEYFKNQWFCNVLAPGGEGGGSK-NH2 (not fully specified (residue 26, bridges); cysteine pairing not given here; also: fluorescein only on labelled aliquots, synthetic; also called DX306) [304A-12-H12 synthetic peptide]
6.52
3. DWVCEWLKMQWACNILAPGGEGGGSK(fluorescein)-NH2 (not fully specified (bridges); cysteine pairing not given here; also: fluorescein on C-terminal Lys ε-amino in labelled aliquots, synthetic) [315A-17-B01 synthetic peptide]
6.02
4. DWVCEFFKDQWFCNILAPGGEGGGSK(fluorescein)-NH2 (not fully specified (bridges); cysteine pairing not given here; also: fluorescein on C-terminal Lys ε-amino in labelled aliquots, synthetic) [315A-18-E02 synthetic peptide]
6.42
5. DWVCEWLKPQWYCNSLAPGGEGGGSK(fluorescein)-NH2 (not fully specified (bridges); cysteine pairing not given here; also: fluorescein on C-terminal Lys ε-amino in labelled aliquots, synthetic) [315A-17-B12 synthetic peptide]
5.74

Shift focus to the following entry.
Entry DWVCEFIKSQWFCNVLAPGGEGGGSK(fluorescein)-NH2 (not fully specified (bridges); cysteine pairing not given here; also: fluorescein on C-terminal Lys ε-amino in labelled aliquots, synthetic) [315A-17-G08 synthetic peptide] — recorded pKd = 6.57
